This listing pairs compounds with measured growth.
- Tested on: RXF 393 renal
- ASSAY PROCEDURE: NCI-60 one-dose screen, 48 h (100 = growth as untreated, 0 = no growth, -100 = all killed)
- STATED CONDITIONS: 10 µM unless noted
- Experimental: Cells are grown in 96 well plates and exposed to the test compound for 48 hours. Compounds are tested at a single concentration, which is 10^-5 M for most compounds. The reported endpoint is percent growth (GI% or GIPRCNT), where numbers from 0 - 100% represent growth inhibition, and numbers from -100% - 0 represent cell death. For example, a value of 40 represents 60% growth inhibition. A value of 0 means no net growth occurred over the course of the experiment. […]
The panel holds about 83,000 compounds, 20% with a hit somewhere; the sample as a whole holds those more often.
Supply the numeric figure in %, leaving out any unit text.

# count of solved cases: 3
O=Cc1c(OCc2cnnn2CC(=O)Nc2ccc(Br)cc2)ccc2ccccc12 100
O=C1c2cc(Cl)ccc2Oc2cc([N+](=O)[O-])ccc2N1c1ccc(F)cc1F 89.6
COC(=O)/C(CCC=C(C)C)=C1\[C@@H](OC(C)=O)C[C@@]2(C)[C@H]1CC(=O)[C@H]1[C@@]3(C)CC[C@H](NCc4ccccc4)[C@@H](C)[C@@H]3CC[C@@]12C 69.4

What value of growth has been reported for the following compound? N#C/C(=C1\SC(=O)CN1c1ccccc1)c1nc2ccccc2s1
105
